- Assay system: BRD4-2 (Homo sapiens (Human))
- Assay name: Bromodomain and Extraterminal Domain (BET) binding assay, BRD4-2
- Condition description: histone H4 peptide (1-21) K5/8/12/16Ac-biotin ligand; 130 nM protein, 70 nM ligand
pIC50: −log10 of the molar value.
Measure name: pIC50

Example cases with answers are listed next.
CCN(CC)C(=O)c1cc2c(-c3cc(C(C)(C)O)ccc3Oc3c(C)cc(F)cc3C)cn(C)c(=O)c2s1 | 5.39
CCS(=O)(=O)Nc1ccc(Oc2c(C)cc(F)cc2C)c(-c2cn(C)c(=O)c3sc(-c4nnc(C)o4)cc23)c1 | 8.47
Cn1cc(-c2cc(C(C)(C)O)ccc2Oc2ccc(F)cc2F)c2cc(C(=O)N3CCC(F)(F)CC3)sc2c1=O | 7.96
Cn1cc(-c2cc(C(C)(C)O)ccc2Oc2ccc(F)cc2F)c2cc(C(=O)NCC(F)(F)F)sc2c1=O | 7.74
CCS(=O)(=O)Nc1ccc(Oc2c(C)cccc2C)c(-c2cn(C)c(=O)c3sc(-c4nnc(C)o4)cc23)c1 | 8.22
C=C(C)c1ccc(Oc2c(C)cc(F)cc2C)c(-c2cn(C)c(=O)c3cc(C(=O)NCC)sc23)c1 | 6.13
Cn1cc(-c2cc(C(C)(C)O)ccc2Oc2ccc(F)cc2F)c2cc(CN3CCCCC3)sc2c1=O | 6.30

(a) Cc1noc(-c2cc3c(-c4cc(C(C)(C)O)ccc4Oc4ccc(F)cc4F)cn(C)c(=O)c3s2)n1
(b) Cc1cc(F)cc(C)c1Oc1ccc(C(C)(C)O)cc1-c1cn(C)c(=O)c2sc(-c3nc4ccccc4o3)cc12
(c) Cc1nnc(-c2cc3c(-c4cc(C(C)(C)O)ccc4Oc4c(C)cc(F)cc4C)cn(C)c(=O)c3s2)o1
Request: Thanks in advance: please rank these 3 entries by pIC50, highest to lowest. Kindly provide the labels arranged according to the requested ordering.
Response: c, a, b
(c: 8.05, a: 7.13, b: 6.28)

From: patent US11584756B2
